Entries and their IC50 values follow.
target under test: AR-LBD (Homo sapiens, UniProt P10275)
Construct: The pET28a-AR-LBD (622-919) construct; made in house
Sequence (P10275 622-919): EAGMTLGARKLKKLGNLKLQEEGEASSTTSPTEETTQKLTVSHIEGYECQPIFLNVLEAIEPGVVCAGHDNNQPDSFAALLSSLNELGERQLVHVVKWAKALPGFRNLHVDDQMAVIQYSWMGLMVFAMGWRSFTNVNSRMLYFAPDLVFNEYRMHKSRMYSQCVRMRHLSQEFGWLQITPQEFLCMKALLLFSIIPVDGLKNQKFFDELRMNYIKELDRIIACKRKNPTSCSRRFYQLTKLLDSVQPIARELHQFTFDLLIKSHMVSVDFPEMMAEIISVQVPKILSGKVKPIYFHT
measurement protocol: H^3-DHT radioligand binding assay
condition parameters: 10 nM H^3-DHT; read-out: Inhibition H^3-DHT ligand binding to AR-LBD IC50
recorded metric: IC50

Cc1cccc2c(-c3ccc(O)c(F)c3)c[nH]c12 56 µM
Cc1ccccc1-c1cc(O)c2c(c1)CN(c1nccs1)CCO2 > 100 µM
COc1cc(-c2ccc(C)s2)cc2c1OCCN(c1nc(C(N)=O)cs1)C2 > 100 µM
Cc1c(-c2ccccc2F)[nH]c2ccc(CNC(=O)CCc3cnccn3)cc12 > 100 µM
Cc1c(-c2ccccc2F)[nH]c2ccc(CNC(=O)CCc3cn[nH]c3)cc12 > 100 µM
Cc1c(-c2ccccc2F)[nH]c2ccc(CNC(=O)c3ccc(CO)o3)cc12 63 µM
CNC(=O)c1ccc(-c2c[nH]c3c(C)cccc23)cc1 > 100 µM
Cc1nc(N)cc(N2CCOc3c(O)cc(-c4ccccc4C)cc3C2)n1 > 100 µM
Cc1c(-c2ccc(F)cc2)[nH]c2ccc(CNC(=O)c3ccc(CO)o3)cc12 > 100 µM
Cc1nsc(NC(=O)N2CCC(Sc3ccccc3C)CC2)n1 > 100 µM
CC(=O)NCCC(=O)NCc1ccc2[nH]c(-c3ccccc3F)c(C)c2c1 > 100 µM
